This section presents compounds with their documented pIC50 values.
- System: human factor IXa (Homo sapiens (Human), UniProt P00740)
- Sequence (P00740 227-461): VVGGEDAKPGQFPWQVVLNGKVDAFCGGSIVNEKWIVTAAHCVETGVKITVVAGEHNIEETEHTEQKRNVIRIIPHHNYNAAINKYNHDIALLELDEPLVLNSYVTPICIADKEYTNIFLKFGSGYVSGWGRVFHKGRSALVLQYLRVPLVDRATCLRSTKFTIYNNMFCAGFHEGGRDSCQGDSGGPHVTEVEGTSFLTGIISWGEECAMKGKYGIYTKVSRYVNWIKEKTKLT
- Sequence (P00740 47-191 partner): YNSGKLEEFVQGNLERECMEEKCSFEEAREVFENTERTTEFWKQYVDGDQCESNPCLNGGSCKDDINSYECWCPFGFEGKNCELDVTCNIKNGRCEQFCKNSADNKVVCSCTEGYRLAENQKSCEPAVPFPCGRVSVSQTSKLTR
pIC50: −log10 of the molar value. Structures can show the parent of a compound that is named as a salt.
Measured metric: pIC50

Compound: Nc1noc2c(N3C[C@@H]4CC[C@H]3[C@@H]4NC(=O)c3ccc(-n4cnnc4)cc3Cl)ncc(Cl)c12 (relative stereo) [Example 6]
Measured metric: pIC50
Assay result: ≥ 7.00

Compound: Nc1noc2c(N3C[C@@H]4CC[C@H]3[C@@H]4NC(=O)c3ccc(-n4cnnc4)cc3Cl)ccc(Cl)c12 (relative stereo) [Example 5]
Measured metric: pIC50
Assay result: ≥ 7.00

Compound: Nc1noc2c(N3C[C@@H]4CC[C@H]3[C@@H]4NC(=O)c3ccc(-n4cnc5ccccc54)cc3Cl)ncc(Cl)c12 (relative stereo) [Example 21]
Measured metric: pIC50
Assay result: ≥ 7.00

Compound: Cc1cc2c(N)noc2c(N2C[C@@H]3CC[C@H]2[C@@H]3NC(=O)c2ccc(-c3cnc(=O)n(C)c3)cc2Cl)n1 (relative stereo) [Example 27, TFA salt]
Measured metric: pIC50
Assay result: ≥ 7.00

Compound: Nc1noc2c(N3C[C@@H]4CC[C@H]3[C@@H]4NC(=O)c3ccc(-n4cnc(CCO)c4)cc3Cl)ncc(Cl)c12 (relative stereo) [Example 14]
Measured metric: pIC50
Assay result: ≥ 7.00

Compound: Nc1noc2c(N3CC4CCC3C4NC(=O)c3ccc(-n4cncn4)cc3Cl)ncc(Cl)c12 (single isomer, unassigned) [Example 8.2]
Measured metric: pIC50
Assay result: 6.00 to 7.00
